What koff was measured for each of the following?
# target of assay: T1, human IL-13 wild type (human, UniProt P35225 35-146)
# T1 construct: also called h IL-13; h IL-13 wt
# T1 sequence (P35225 other isoform, or with tags, fused parts or gaps limits assumed): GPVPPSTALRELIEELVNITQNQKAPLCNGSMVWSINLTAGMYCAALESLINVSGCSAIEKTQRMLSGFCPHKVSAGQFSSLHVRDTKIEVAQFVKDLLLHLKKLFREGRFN
# assay remarks: SPR (Biacore)
Quick reminder: number only, in s⁻¹, skip the unit.

Ask | Respond only with koff recorded for 5G1.5 (antibody, human IgG1, V domains shown, Humanized; The heavy chain row is printed 'VN 5G1.5') VH: QVQLVQSGAEVKKPGASVKVSCKASGYTFTTYGVSWVRQAPGQGLEWIGEIYPGNYNTYYNEKFRGKATLTADKSTSTAYMELSSLRSEDTAVYYCSRWRTSYFSDYGYFDYWGQGTLVTVSS VL: DIVMTQSPLSLPVTPGQPASISCRSSQSLVHSHGNTYLHWYLQKPGQSPKLLIYTVSNRFSGVPDRFSGSGSGTDFTLKISRVEAEDVGVYYCSQSTHVPYTFGGGTKVEIK
Reply | 1.91e-05

Ask | Respond only with koff recorded for 13C5.1 (antibody, human IgG1, V domains shown, Humanized) VH: EVTLKESGPVLVKPTETLTLTCTFSGFSLSTSDMGVDWIRQPPGKALEWLAHIWWDDVKRYNPALKSRLTISKDTSKSQVVLTMTNMDPVDTATYYCARTVSSGYIYYAMDYWGQGTTVTVSS VL: DIQMTQSPSSLSASVGDRVTITCRASQDIRNYLNWYQRKPGKVVKLLIYYTSKLHSGVPSRFSGSGSGTDFTLTISSLQPEDVATYYCQQGNTLPLTFGGGTKVEIKR
Reply | 0.000474

Ask | Respond only with koff recorded for 5G1-Chim (antibody, V domains shown, also called chimeric 5G1) VH: QVQLQQSGAELARPGTSVKLSCKASGYTFTTYGVSWVKQRTGQGLEWIGEIYPGNYNTYYNEKFRGKATLTADKSSSTAYMQLSSLTSEDSAVYFCSRWRTSYFSDYGYFDYWGQGTTLTVSS VL: DVVMTQTPLSLPVSLGDQASISCRSSQSLVHSHGNTYLHWYLQKPGQSPKLLIYTVSNRFSGVPDRFSGSGSGTDFTLKISRVEAEDLGVYFCSQSTHVPYTFGGGTKLEIKR
Reply | 3.82e-05

Value source: patent US20110165066A1
